Kindly state pIC50 for each of the entries shown.
Target: EZH2 (Homo sapiens, UniProt Q15910)
Construct: GRITS37108
Sequence (Q15910 whole entry): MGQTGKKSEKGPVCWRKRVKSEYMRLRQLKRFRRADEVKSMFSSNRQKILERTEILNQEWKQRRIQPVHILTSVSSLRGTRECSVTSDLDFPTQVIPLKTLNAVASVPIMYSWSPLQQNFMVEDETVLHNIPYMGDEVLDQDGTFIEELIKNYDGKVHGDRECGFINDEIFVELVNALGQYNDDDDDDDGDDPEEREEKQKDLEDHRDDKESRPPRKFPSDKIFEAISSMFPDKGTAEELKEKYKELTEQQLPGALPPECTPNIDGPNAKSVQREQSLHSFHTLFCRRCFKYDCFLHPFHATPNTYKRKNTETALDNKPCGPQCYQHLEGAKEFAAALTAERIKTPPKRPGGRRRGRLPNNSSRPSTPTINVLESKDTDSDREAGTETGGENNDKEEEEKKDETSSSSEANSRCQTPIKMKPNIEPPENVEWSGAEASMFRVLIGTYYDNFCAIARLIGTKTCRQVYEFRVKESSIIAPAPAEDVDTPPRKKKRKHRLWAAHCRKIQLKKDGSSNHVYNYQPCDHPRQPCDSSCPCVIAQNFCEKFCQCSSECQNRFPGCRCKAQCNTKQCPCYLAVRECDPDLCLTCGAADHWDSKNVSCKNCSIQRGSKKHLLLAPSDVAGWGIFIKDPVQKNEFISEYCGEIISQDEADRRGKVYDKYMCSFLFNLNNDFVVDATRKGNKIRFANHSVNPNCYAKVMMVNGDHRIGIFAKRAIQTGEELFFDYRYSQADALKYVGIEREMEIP
Sequence (O75530 whole entry partner): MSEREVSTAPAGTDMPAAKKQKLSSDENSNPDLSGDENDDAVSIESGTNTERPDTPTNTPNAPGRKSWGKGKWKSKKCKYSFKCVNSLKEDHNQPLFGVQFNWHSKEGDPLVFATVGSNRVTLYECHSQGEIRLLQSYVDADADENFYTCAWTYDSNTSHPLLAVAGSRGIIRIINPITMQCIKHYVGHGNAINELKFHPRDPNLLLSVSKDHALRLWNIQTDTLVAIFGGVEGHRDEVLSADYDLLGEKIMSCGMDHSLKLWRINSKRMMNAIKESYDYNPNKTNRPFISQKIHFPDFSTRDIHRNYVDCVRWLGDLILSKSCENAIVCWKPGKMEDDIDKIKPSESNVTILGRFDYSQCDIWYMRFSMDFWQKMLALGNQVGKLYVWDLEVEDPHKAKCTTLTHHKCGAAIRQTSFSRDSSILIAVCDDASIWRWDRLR
Sequence (Q15022 whole entry partner): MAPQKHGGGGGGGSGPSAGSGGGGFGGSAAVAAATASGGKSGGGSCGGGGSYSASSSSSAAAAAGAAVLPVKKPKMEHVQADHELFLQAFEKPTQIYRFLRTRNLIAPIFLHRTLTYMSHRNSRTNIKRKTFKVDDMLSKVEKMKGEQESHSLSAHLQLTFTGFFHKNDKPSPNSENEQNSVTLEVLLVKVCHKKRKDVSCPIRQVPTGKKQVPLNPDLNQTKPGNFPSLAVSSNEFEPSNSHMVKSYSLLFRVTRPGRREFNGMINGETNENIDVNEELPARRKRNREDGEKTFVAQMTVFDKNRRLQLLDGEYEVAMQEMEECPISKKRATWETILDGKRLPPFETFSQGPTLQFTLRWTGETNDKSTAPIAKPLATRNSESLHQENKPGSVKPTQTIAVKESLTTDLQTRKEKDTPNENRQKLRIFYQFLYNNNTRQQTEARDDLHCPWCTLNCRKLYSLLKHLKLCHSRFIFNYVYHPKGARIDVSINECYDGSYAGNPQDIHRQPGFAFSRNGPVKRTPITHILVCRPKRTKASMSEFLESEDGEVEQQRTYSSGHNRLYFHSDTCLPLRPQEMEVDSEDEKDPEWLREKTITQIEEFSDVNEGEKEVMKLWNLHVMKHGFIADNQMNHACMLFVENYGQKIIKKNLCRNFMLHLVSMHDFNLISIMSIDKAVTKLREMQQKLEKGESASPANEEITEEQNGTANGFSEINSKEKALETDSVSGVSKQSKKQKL
Assay: EZH2 methyltransferase SPA assay (3H-SAM, Hela nucleosomes)
Assay type: biochemical
Conditions: read-out: IC50
Entry type: numeric. Quantity: pIC50, the -log10 of concentration in molar units.

Query: So what's the measured pIC50 for this one? Cc1cc(C)c(CNC(=O)c2cc(-c3ccncc3)nc3c2cnn3C(C)C)c(=O)[nH]1
Reply: 6.70

Query: Would you mind doing Cc1cc(C)c(CNC(=O)c2cc(-c3ccc4[nH]c(=O)[nH]c4c3)nc3c2c(C)nn3C(C)C)c(=O)[nH]1 as well?
Reply: 7.28

Query: Proceed to CC(=O)Nc1ccc(-c2cc(C(=O)NCc3c(C)cc(C)[nH]c3=O)c3cnn(C(C)C)c3n2)cn1
Reply: 7.60

Query: For Cc1cc(C)c(CNC(=O)c2cc(-c3c[nH]c(=O)[nH]c3=O)nc3c2cnn3C(C)C)c(=O)[nH]1 then?
Reply: 6.70

Query: Continue with Cc1cc(C)c(CNC(=O)c2cc(-c3ccc(C(N)=O)cc3)nc3c2cnn3C(C)C)c(=O)[nH]1
Reply: 6.99

Query: Would you mind doing Cc1cc(C2CC2)[nH]c(=O)c1CNC(=O)c1cc(C2CC2)nc2c1cnn2C(C)C as well?
Reply: 5.47

Query: # repeat for Cc1cc(C)c(CNC(=O)c2cc(-c3cccc(N)c3)nc3c2cnn3C(C)C)c(=O)[nH]1
Reply: 6.61

Query: Next up: Cc1cc(C)c(CNC(=O)c2cc(-c3ccc4[nH]c(=O)[nH]c4c3)nc3c2c(C)nn3C(C)(C)C)c(=O)[nH]1
Reply: 7.28

Query: Check COc1ccc(-c2cc(C(=O)NCc3c(C)cc(C)[nH]c3=O)c3c(C)nn(C(C)(C)C)c3n2)cc1 too.
Reply: 6.39

Query: What about this molecule? Cc1cc(-c2ccccc2)c(CNC(=O)c2cc(C3CC3)nc3c2cnn3C(C)C)c(=O)[nH]1
Reply: 5.59

Query: Moving on to Cc1cc(C)c(CNC(=O)c2cc(C#CC(C)(C)O)nc3c2cnn3C(C)C)c(=O)[nH]1
Reply: 6.63

Query: Please give the result for Cc1cc(C)c(CNC(=O)c2cc(-c3ccc4[nH]nc(C)c4c3)nc3c2cnn3C(C)C)c(=O)[nH]1 too.
Reply: 6.81

Query: Another molecule to check: Cc1cc(C)c(CNC(=O)c2cc(C(C)(C)C)nc3c2c(C)nn3C(C)(C)C)c(=O)[nH]1
Reply: 6.56

Query: Likewise for Cc1cc(C)c(CNC(=O)c2cc(C#Cc3ccncc3)nc3c2cnn3C(C)C)c(=O)[nH]1 ?
Reply: 7.15

Query: Also Cc1cc(C)c(CNC(=O)c2cc(N3CCCCC3)nc3c2cnn3C(C)C)c(=O)[nH]1 , if possible.
Reply: 6.16

Query: C=CCNc1cc(C(=O)NCc2c(C)cc(C)[nH]c2=O)c2cnn(C(C)C)c2n1 ?
Reply: 6.15

* * *

Target: EZH2 (Homo sapiens)
Construct: GRITS37108
Assay: EZH2 methyltransferase SPA assay (3H-SAM, Hela nucleosomes)
Assay type: biochemical
Details: read-out: IC50
Provide the reported pIC50 of each item.
# log scale: pIC50 equals minus log10 of the concentration in mol/L

Query: Reported pIC50 for EZH2 (Homo sapiens), given Cc1cc(C)c(CNC(=O)c2cc(-c3ccc(S(C)(=O)=O)cc3)nc3c2cnn3C(C)C)c(=O)[nH]1 ?
Reply: 6.48

Query: Now the compound Cc1cc(C)c(CNC(=O)c2cc(-c3cccnc3)nc3c2cnn3C(C)C)c(=O)[nH]1
Reply: 6.27

Query: // repeat for Cc1cc(C)c(CNC(=O)c2cc(-c3ccc4c(c3)NC(=O)C4)nc3c2cnn3C(C)C)c(=O)[nH]1 and report
Reply: 7.37

Query: Cool, now Cc1cc(C)c(CNC(=O)c2cc(-c3ccccc3)nc3c2c(Br)nn3C(C)C)c(=O)[nH]1
Reply: 6.66

Query: Cool, now Cc1cc(-c2ccccc2)c(CNC(=O)c2cc(-c3ccncc3)nc3c2cnn3C(C)C)c(=O)[nH]1
Reply: 6.13

Query: // same read-out, input: CCc1cc(C)c(CNC(=O)c2cc(-c3ccncc3)nc3c2cnn3C(C)C)c(=O)[nH]1
Reply: 6.24

Query: // same read-out, input: COc1cncc(-c2cc(C(=O)NCc3c(C)cc(C)[nH]c3=O)c3cnn(C(C)C)c3n2)c1
Reply: 7.11

Query: # repeat for Cc1cc(C)c(CNC(=O)c2cc(C3CC3)nc3c2c(C)nn3C(C)C)c(=O)[nH]1
Reply: 6.43

Query: Then what about the compound CCNc1cc(C(=O)NCc2c(C)cc(C)[nH]c2=O)c2cnn(C(C)C)c2n1 ?
Reply: 5.98

Query: Next up: Cc1cc(C)c(CNC(=O)c2cc(C3CC3)nc3c2c(C)nn3C2CCCCC2)c(=O)[nH]1
Reply: 6.64

Query: Same thing, different compound: Cc1cc(C)c(CNC(=O)c2cc(-c3ccnc(N4CCOCC4)c3)nc3c2cnn3C(C)C)c(=O)[nH]1
Reply: 7.09

Query: How about Cc1cc(C)c(CNC(=O)c2cc(-c3ccc(N4CCOCC4)nc3)nc3c2c(C)nn3C(C)C)c(=O)[nH]1 ?
Reply: 7.37

Query: Same question, Cc1cc(C)c(CNC(=O)c2cc(-c3cnc4c(c3)CCC(=O)N4)nc3c2cnn3C(C)C)c(=O)[nH]1 this time
Reply: 7.24

Query: Same read-out for Cc1cc(C(F)(F)F)c(CNC(=O)c2cc(C3CC3)nc3c2cnn3C(C)C)c(=O)[nH]1 ?
Reply: 5.85

Query: Queued: Cc1cc(C)c(CNC(=O)c2cc(Cl)nc3c2c(C)nn3C(C)C)c(=O)[nH]1
Reply: 6.09

Query: Field entry: Cc1cc(C)c(CNC(=O)c2cc(-c3cncc(NS(=O)(=O)c4ccccc4)c3)nc3c2cnn3C(C)C)c(=O)[nH]1
Reply: 7.26

* * *

Biological target: EZH2 (Homo sapiens)
Construct: GRITS37108
Assay: EZH2 methyltransferase SPA assay (3H-SAM, Hela nucleosomes)
Format: biochemical
Settings: read-out: IC50
REPORTED_ENDPOINT: log10 IC50 (log10 of the value in nM)
Please keep in mind that the values are log10 of IC50 expressed in nM.

Query: Give recorded log10 IC50 with EZH2 (Homo sapiens) for the following compound: CNS(=O)(=O)c1ccc(-c2cc(C(=O)NCc3c(C)cc(C)[nH]c3=O)c3c(C)nn(C(C)C)c3n2)cc1
Reply: 1.88

Query: What do you get for Cc1cc(C)c(CNC(=O)c2cc(C#Cc3ccccc3)nc3c2cnn3C(C)C)c(=O)[nH]1 ?
Reply: 2.37

Query: Param item: Cc1cc(C)c(CNC(=O)c2cc(C3CC3)nc3c2c(C)nn3C2CCOCC2)c(=O)[nH]1
Reply: 2.84

Query: Same question, Cc1cc(C)c(CNC(=O)c2cc(Cl)nc3c2cnn3C(C)C)c(=O)[nH]1 this time
Reply: 2.68

Query: Check Cc1cc(C)c(CNC(=O)c2cc(Nc3ccc4[nH]c(=O)[nH]c4c3)nc3c2cnn3C(C)C)c(=O)[nH]1 too.
Reply: 1.49

Query: Next record, please: Cc1cc(C)c(CNC(=O)c2cc(-c3cccnc3)nc3c2c(C)nn3C(C)(C)C)c(=O)[nH]1
Reply: 2.18

Query: Now consider Cc1cc(C)c(CNC(=O)c2cc(NCCN(C)C)nc3c2cnn3C(C)C)c(=O)[nH]1 and answer again.
Reply: 3.32

Query: Let us now turn to Cc1cc(C)c(CNC(=O)c2cc(-c3ccc4cn[nH]c4c3)nc3c2cnn3C(C)C)c(=O)[nH]1
Reply: 2.12

Query: Next: Cc1cc(C(=O)NCc2c(C)cc(C)[nH]c2=O)c2cnn(Cc3ccccc3)c2n1
Reply: 3.76

Query: Another compound: CC(=O)Nc1ccc(-c2cc(C(=O)NCc3c(C)cc(C)[nH]c3=O)c3cnn(C(C)C)c3n2)cc1
Reply: 1.87

Query: Request: CNC(=O)c1ccc(-c2cc(C(=O)NCc3c(C)cc(C)[nH]c3=O)c3cnn(C(C)C)c3n2)cc1
Reply: 2.11

Query: Another compound: Cc1cc(C)c(CNC(=O)c2cc(C(C)C)nc3c2cnn3C(C)C)c(=O)[nH]1
Reply: 3.04

Query: What do you have for Cc1cc(C)c(CNC(=O)c2cc(-c3ccc(N4CCN(C)CC4)nc3)nc3c2c(C)nn3C(C)C)c(=O)[nH]1 ?
Reply: 1.38

Query: Also CNS(=O)(=O)c1ccc(-c2cc(C(=O)NCc3c(C)cc(C)[nH]c3=O)c3cnn(C(C)C)c3n2)cc1 , if possible.
Reply: 1.75

Query: // same read-out, input: Cc1cc(C)c(CNC(=O)c2ccnc3c2cnn3C(C)C)c(=O)[nH]1
Reply: 3.13

Query: Same question for Cc1cc(C2CCCCC2)c(CNC(=O)c2cc(C3CC3)nc3c2cnn3C(C)C)c(=O)[nH]1 please.
Reply: 2.02
